The origin of these recorded values is PubChem BioAssay (NCATS).

- METHOD_NOTES: Quantitative High-Throughput drug screen in 47 multiple myeloma cell lines against the NCATS MIPE library collection: MM1S_ATCC cell viability assay (AID 1918980); also: nearly all actives have a fitted effect of over 45% in size
- CONDITION_DETAILS: MM1S myeloma viability, CellTiter-Glo ATP luminescence, 48 h; series mostly up to 45.8 µM
- Description: PI: Beverly A. Mock Ph.D. Laboratory of Cancer Biology and Genetics, Center for Cancer Research, National Cancer Institute, National Institute of Health, Bethesda, Maryland […] 5; Detector; 425V; Luminescence; Viewlux PerkinElmer. […] 1. […] Briefly, the corresponding myeloma cell lines were screened in 1,536-well plates with 500 cells, 5-uL per well for inhibition of cell viability (assessed by measuring ATP levels with CellTiterGlo). […]
Results filed as inconclusive are left out. Activity calls are given as the source filed them. Calls follow the shape of the dose curve; as a rule, active = well fitted cell-killing curve with a large enough effect; inconclusive = small, poorly fitted or top-dose-only effect, or effect the other way; inactive = no such curve, though single readings can be large or run the other way.
Outcome codes: active, inactive

COMPOUND: CCOC(=O)Nc1ccc(NCc2ccc(F)cc2)cc1N
QUALITATIVE_LABEL: active

COMPOUND: COc1ccc2c(c[n+](C)c3c4cc5c(cc4ccc23)OCO5)c1OC
QUALITATIVE_LABEL: active

COMPOUND: CC=C(C)C(=O)N[C@@H](c1ccccc1)[C@@H](O)C(=O)O[C@H]1C[C@@]2(O)[C@@H](OC(=O)c3ccccc3)[C@@H]3[C@]4(OC(C)=O)CO[C@@H]4C[C@H](O)[C@@]3(C)C(=O)[C@H](OC(C)=O)C(=C1C)C2(C)C
QUALITATIVE_LABEL: inactive

COMPOUND: CC(C)(C)[C@]1(O)C[C@@H]2OC(=O)C[C@@]23C(=O)O[C@@H]2OC(=O)[C@H](O)C213 (some centres undefined)
QUALITATIVE_LABEL: inactive

---

- METHOD_NOTES: Cellular Toxicity (caspase-3) HepG2 (AID 654);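 also: cells exposed to compound for 16 hours before reading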
- CONDITION_DETAILS: HepG2 caspase-3 activation, luminescence, 0% = DMSO only, 100% = tamoxifen; series mostly up to 92.2 µM
The source made the active and inactive calls. Calls come from the whole dose curve; as a rule, active = well fitted activation curve with a large enough effect; inconclusive = small, poorly fitted or top-dose-only effect; inactive = flat fitted curve, though single readings scatter.

SMILES_STR: Nc1ccc(Cl)cc1
outcome: inactive
//
SMILES_STR: c1cc2ccc3cccc4ccc(c1)c2c34
outcome: inactive
//
SMILES_STR: CC(=O)[O][Hg][c]1ccccc1
outcome: inactive

---

- METHOD_NOTES: Quantitative High-Throughput drug screen in 47 multiple myeloma cell lines against the NCATS MIPE library collection: MM1R_ATCC cell viability assay (AID 1918981); also: nearly all actives have a fitted effect of over 35% in size
- CONDITION_DETAILS: MM1R multiple myeloma cells, CellTiter-Glo viability, 48 h; series mostly up to 45.8 µM
Inconclusive results are not listed. Calls of active or inactive are those of the source. Calls come from the whole dose curve; as a rule, active = well fitted cell-killing curve with a large enough effect; inconclusive = small, poorly fitted or top-dose-only effect, or effect the other way; inactive = no such curve, though single readings can be large or run the other way.
Outcome codes: active, inactive

MOLECULE: COC[C@H]1OC(=O)c2coc3c2[C@@]1(C)C1=C(C3=O)[C@@H]2CC[C@H](O)[C@@]2(C)C[C@@H]1OC(C)=O
QUALITATIVE_LABEL: active
--
MOLECULE: C[C@@]12OC(=O)[C@]1([C@@H](O)[C@@H]1C=CCCC1)NC(=O)[C@H]2CCCl
QUALITATIVE_LABEL: active
--
MOLECULE: C[C@H]1CCCC=CC2C[C@H](O)C[C@@H]2[C@H](O)C=CC(=O)O1 (some centres undefined)
QUALITATIVE_LABEL: inactive
--
MOLECULE: CCOP(=O)(OCC)C(C)NC(=O)N(CCCl)N=O (centres undefined)
QUALITATIVE_LABEL: inactive
--
MOLECULE: C[C@]12COC(=O)C[C@@H]1CC[C@@H]1[C@H]2CC[C@@]2(C)[C@H]1CC[C@]2(C)O
QUALITATIVE_LABEL: inactive
--
MOLECULE: C[C@]12CC[C@H]3[C@@H](CCC4=CC(=O)CC[C@@]43C)[C@H]1CC[C@H]2O
QUALITATIVE_LABEL: inactive
--
MOLECULE: C#CC1(O)CCC2C3CCC4=CC(=O)CCC4(C)C3CCC21C (centres undefined)
QUALITATIVE_LABEL: inactive
--
MOLECULE: CC(C)[C@H]1C(=O)N[C@H](CO)Cc2c[nH]c3cccc(c23)N1C
QUALITATIVE_LABEL: inactive
--
MOLECULE: Cc1ccccc1-n1c(Cn2ncc3c(N)ncnc32)nc2cccc(C)c2c1=O
QUALITATIVE_LABEL: active
